B1: TPR t1 (parent)
chain: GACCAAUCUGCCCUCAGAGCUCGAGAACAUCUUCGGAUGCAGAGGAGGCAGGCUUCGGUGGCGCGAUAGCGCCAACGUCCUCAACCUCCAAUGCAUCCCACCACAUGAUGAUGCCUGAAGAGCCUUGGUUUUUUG

variants of: B1; assay: polymerase ribozyme fitness, log enrichment relative to wild type (log ratio); higher = more active; in vitro selection for triplet polymerase activity
quantity kind: polymerase ribozyme fitness (log ratio)
Please respond with just the number, no unit label.

*Q* Would you kindly share the measured polymerase ribozyme fitness (log ratio) for G36U G69A ?
*A* -4.06

*Q* What would you report for C13U C49U U55G U92A ?
*A* -4.11

*Q* A26U C72A ?
*A* -2.97
